- System: IC-GPCR2 (Homo sapiens, UniProt Q8TDV5, S309L)
- Construct: expressed in transfected cells
- Test name: Stimulation of cAMP in CHO cells stably expressing IC-GPCR2 (HTRF cAMP assay)
- Assay type: cell-based
- Assay context: 0.5 h, 30 minutes, IC-GPCR2 stably expressing CHO cells, read-out: Activity at 10 uM (% change in FRET signal from DMSO control)
- Experimental: This assay was developed using a stable cell line expressing IC-GPCR-2, generated as follows. […] To measure cAMP activity in response to IC-GPCR2 agonist, the clones were plated in 96 well plates at 17500 cells per well. On the day after plating, cells were incubated with the IC-CPCR2 agonist at […] for 30 minutes in Ham's F12 Media (Gibco) with 0.04% DMSO. cAMP was measured using the cAMP dynamic kit from Cis Bio (Bedford, Mass.) according to the manufacturer's instructions. […]
Provide the reported activation at 10 µM of each item.
Your answer is read as %, so omit the unit and give the number.

Look at this molecule and give its reported activation at 10 µM. CCc1cnc(N2CCC(c3nc(COc4ccc(-n5cnnn5)cc4C)cs3)CC2)nc1 68

Return reported activation at 10 µM; argument: Cc1cnc(N2CCC(c3nc(COc4ccc(-n5cnnn5)cc4)cs3)CC2)nc1Cl 7

Using the record for Fc1cc(-n2cnnn2)ccc1OCc1csc(C2CCN(c3ncc(C(F)(F)F)cn3)CC2)n1 , report its activation at 10 µM. 76

If you can, please state the reported activation at 10 µM value of CC(C)(C)OC(=O)N1CCC(c2nc(COc3ccc(-n4ccnn4)cc3)cs2)CC1 . 57

If you can, please state the reported activation at 10 µM value of Cc1cc(C(=O)O)nc(N2CCC(c3nc(COc4ccc(-n5cnnn5)cc4)cs3)CC2)n1 . 43

Look up activation at 10 µM for this molecule: Clc1ccc(-c2cnc(N3CCC(c4nc(COc5ccc(-n6cnnn6)cc5)cs4)CC3)nc2)cc1 70

Looking for the measured activation at 10 µM of CCCN1CCC(c2nc(COc3ccc(-n4cnnn4)cc3)cs2)CC1 , can you help? 32

Suppose we examine the molecule CCc1cnc(N2CCC(c3nc(COc4c(F)cc(-n5cnnn5)cc4F)cs3)CC2)nc1 ; what activation at 10 µM value has been reported? 78

* * *

- System: IC-GPCR2 (Homo sapiens, UniProt Q8TDV5, S309L)
- Construct: expressed in transfected cells
- Test name: Stimulation of cAMP in CHO cells stably expressing IC-GPCR2 (HTRF cAMP assay)
- Assay type: cell-based
- Assay context: 0.5 h, 30 minutes, IC-GPCR2 stably expressing CHO cells, read-out: Activity at 10 uM (% change in FRET signal from DMSO control)
Assay metric: activation at 10 µM (%)
Form entry: value (%) — number only.

Enter reported activation at 10 µM observed with IC-GPCR2 (Homo sapiens, UniProt Q8TDV5, S309L) for CS(=O)(=O)c1ccc(OCc2csc(C3CCN(C(=O)Oc4cccc5ccccc45)CC3)n2)cc1 [Example 29] 51

Look up activation at 10 µM with IC-GPCR2 (Homo sapiens, UniProt Q8TDV5, S309L) for this molecule: O=C(CN1CCC(c2nc(COc3ccc(-n4cnnn4)cc3)cs2)CC1)c1ccc(OC(F)(F)F)cc1 [Example 153] 44

Item: CCc1noc(N2CCC(c3nc(COc4ccc(-n5cnnn5)cc4)cs3)CC2)n1 [Example 96] Test system: IC-GPCR2 (Homo sapiens, UniProt Q8TDV5, S309L) Read-out: activation at 10 µM Value: ? 79

Requested read-out activation at 10 µM, target or system IC-GPCR2 (Homo sapiens, UniProt Q8TDV5, S309L), entry CC(C)(C)OC(=O)N1CCC(c2nc(COc3ccc([S+]([O-])C(F)(F)F)cc3)cs2)CC1 (centres unmarked) [Example 111] 68

Please tell me: activation at 10 µM of CCc1cnc(N2CCC(c3nc(COc4ccc(-n5cnnn5)cc4Cl)cs3)CC2)nc1 [Example 120] , system IC-GPCR2 (Homo sapiens, UniProt Q8TDV5, S309L)? 73

Write down the reported activation at 10 µM of CC(C)COC(=O)N1CCC(c2nc(COc3ccc(-n4cnnn4)cc3)cs2)CC1 [Example 30] , test system: IC-GPCR2 (Homo sapiens, UniProt Q8TDV5, S309L). 73

Look up activation at 10 µM with IC-GPCR2 (Homo sapiens, UniProt Q8TDV5, S309L) for this molecule: CC(C)(C)OC(=O)N1CCC(c2nc(COc3ccc(C#N)cc3F)cs2)CC1 [Example 126] 87

Item: CCc1cnc(N2CCC(c3nc(CNc4ccc(S(C)(=O)=O)cc4F)cs3)CC2)nc1 [Example 141] Test system: IC-GPCR2 (Homo sapiens, UniProt Q8TDV5, S309L) Read-out: activation at 10 µM Value: ? 64

* * *

Please respond with reported activation at 10 µM for every item in the list.
- System: IC-GPCR2 (Homo sapiens, UniProt Q8TDV5, S309L)
- Construct: expressed in transfected cells
- Sequence (Q8TDV5 1-335 S309L): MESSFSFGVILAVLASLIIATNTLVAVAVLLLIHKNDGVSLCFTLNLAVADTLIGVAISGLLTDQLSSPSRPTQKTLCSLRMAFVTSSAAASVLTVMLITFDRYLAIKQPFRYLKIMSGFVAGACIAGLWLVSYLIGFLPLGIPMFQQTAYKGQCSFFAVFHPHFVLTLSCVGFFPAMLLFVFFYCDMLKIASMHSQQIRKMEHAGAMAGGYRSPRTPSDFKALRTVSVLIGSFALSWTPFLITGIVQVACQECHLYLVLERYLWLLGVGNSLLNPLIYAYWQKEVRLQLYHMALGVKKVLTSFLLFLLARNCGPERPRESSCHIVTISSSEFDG
- Test name: Stimulation of cAMP in CHO cells stably expressing IC-GPCR2 (HTRF cAMP assay)
- Type: cell-based
- Assay context: 0.5 h, 30 minutes, IC-GPCR2 stably expressing CHO cells, read-out: Activity at 10 uM (% change in FRET signal from DMSO control)
Answer format: numeric, % implied, no suffix.

# lookup: activation at 10 µM of CC(C)(C)OC(=O)N1CCC(c2nc(C(=O)Nc3ccc(-n4cnnn4)cc3)cs2)CC1 [Example 109] 38

Which measured activation at 10 µM value corresponds to CCc1cnc(N2CC[C@@H](c3nc(COc4ccc(-n5cnnn5)cc4F)cs3)[C@@H](C)C2)nc1 (stereo in doubt) [Example 200] ? 82

Entry under review: Fc1cnc(N2CCC(c3nc(COc4ccc(-n5cnnn5)cc4)cs3)CC2)nc1 [Example 55] . Reported activation at 10 µM? 66

Which activation at 10 µM reading was recorded for the compound CCC(=O)c1cc(F)c(OCc2csc(C3CCN(C(=O)OC(C)(C)C)CC3)n2)c(F)c1 [Example 124] ? 80

Item CCc1cnc(N2CCC(c3nc(COc4ccc(N5CCOCC5)cc4)cs3)CC2)nc1 [Example 191] has what recorded activation at 10 µM? 74

Can you look up the measured activation at 10 µM of CCc1cnc(N2CCC(c3nc(COc4cccc(-n5cnnn5)c4)cs3)CC2)nc1 [Example 11] for me? 34

Entry under review: CC(C)(C)OC(=O)N1CCC(O)(c2nc(COc3ccc(S(C)(=O)=O)cc3)cs2)CC1 [Example 86] . Reported activation at 10 µM? 49

Requested field: activation at 10 µM. Item: CC(C)CS(=O)(=O)N1CCN(c2nc(COc3ccc(S(C)(=O)=O)cc3)cs2)CC1 [Example 92] 14

Can you share its activation at 10 µM? I mean this compound: CC(C)(C)OC(=O)N1CCC(c2nc(COc3ccc(-n4cnnn4)cc3)co2)CC1 [Example 121] 75

Bench note: what activation at 10 µM did CS(=O)(=O)N1CCC(c2nc(COc3ccc(-n4cnnn4)cc3)cs2)CC1 [Example 154] show? 66

Would you kindly share the measured activation at 10 µM for CC(C)(C)OC(=O)N1CCC(c2nc(CS(=O)(=O)c3ccc(S(C)(=O)=O)cc3)cs2)CC1 [Example 21] ? 23

Entry under review: CC(C)(C)OC(=O)N1CCC(c2nc(COc3ccc(-n4cnnn4)cc3F)cs2)CC1 [Example 19] . Reported activation at 10 µM? 76

# lookup: activation at 10 µM of CCCCN1CCC(c2nc(COc3ccc(-n4cnnn4)cc3)cs2)CC1 [Example 152] 68

Sample C[C@H]1CN(C(=O)OC(C)(C)C)CC[C@H]1c1nc(COc2ccc(-n3cnnn3)cc2)cs1 (stereo in doubt) [Example 144] — what was its activation at 10 µM? 81

For CC(C)(C)OC(=O)N1CCC(c2nc(COc3ccc(-n4ccnc4)cc3)cs2)CC1 [Example 2] , what is its reported activation at 10 µM? 50

Query: activation at 10 µM; subject: CCc1cnc(N2CCC(c3nc(COc4ccc(-n5cnnn5)nc4)cs3)CC2)nc1 [Example 182] 78

Give its activation at 10 µM value. Item: CC(C)(C)OC(=O)N1CCN(c2nc(COc3ccc(S(C)(=O)=O)cc3)cs2)CC1 [Example 91] 28

// returns reported activation at 10 µM for input CCc1cnc(N2CCC(c3nc(CNc4ccc(F)nc4)cs3)CC2)nc1 [Example 188] 69

What does the data say about its activation at 10 µM? Entry: CC(C)(C)OC(=O)N1CCC(c2nc(COc3c(F)cc(-n4cnnn4)cc3F)cs2)CC1 [Example 112] 57

Fill in the blank: the reported activation at 10 µM of CC(C)(C)OC(=O)N1CCC(c2nc(COc3ccc(-n4cccc4)cc3)cs2)CC1 [Example 113] is ____. 60

Would you mind telling me what activation at 10 µM value was observed for CS(=O)(=O)c1ccc(OCc2csc(C3CCN(c4ncccn4)CC3)n2)cc1 [Example 47] ? 51

// returns reported activation at 10 µM for input c1cc(-n2cnnn2)ccc1OCc1csc(C2CCN(c3cnc(-n4cnnn4)cn3)CC2)n1 [Example 187] 75

Fill blank: measured activation at 10 µM of the compound C[C@H]1CN(C(=O)OC(C)(C)C)CC[C@H]1c1nc(COc2ccc(-n3cnnn3)cc2F)cs1 (stereo in doubt) [Example 145] is ____. 73

Given CC(=O)Nc1ccc(OCc2csc(C3CCN(C(=O)OC(C)(C)C)CC3)n2)cc1 [Example 3] , state its recorded activation at 10 µM. 63

Entry under review: CCNC(=O)N1CCC(c2nc(COc3ccc(-n4cnnn4)cc3)cs2)CC1 [Example 46] . Reported activation at 10 µM? 30

Item under review: CC(C)(C)OC(=O)N1CCC(c2nc(COc3ccc(-n4cncn4)cc3)cs2)CC1 [Example 5] . Reported activation at 10 µM? 60

Please give the measured activation at 10 µM for this compound: CCc1cnc(N2CCC(c3nc(COc4ccc(-n5nnnc5C)cc4)cs3)CC2)nc1 [Example 12] 70

Entry Clc1cnc(N2CCC(c3nc(COc4ccc(-n5cnnn5)cc4Cl)cs3)CC2)nc1 [Example 165] has what activation at 10 µM? 71

Please give the measured activation at 10 µM for this compound: CC(C)(C)OC(=O)N1CC(c2nc(COc3ccc(-n4cnnn4)cc3)cs2)C1 [Example 101] 44

Can you share its activation at 10 µM? I mean this compound: CS(=O)(=O)c1ccc(OCc2csc(C3CCN(C(=O)OCc4ccccc4)CC3)n2)cc1 [Example 23] 37

Recorded activation at 10 µM of CCc1cnc(N2CCC(F)(c3ncc(COc4ccc(S(C)(=O)=O)cc4)s3)CC2)nc1 [Example 90] , please. 64

Would you kindly share the measured activation at 10 µM for CCc1cnc(N2CCC(c3nc(COc4ccc(S(C)(=O)=O)cc4)co3)CC2)nc1 [Example 123] ? 72
